Molecular target: full-length beta-Catenin (Uniprot ID P35222) (Homo sapiens (Human)) (UniProt P35222)
Sequence (P35222 whole entry): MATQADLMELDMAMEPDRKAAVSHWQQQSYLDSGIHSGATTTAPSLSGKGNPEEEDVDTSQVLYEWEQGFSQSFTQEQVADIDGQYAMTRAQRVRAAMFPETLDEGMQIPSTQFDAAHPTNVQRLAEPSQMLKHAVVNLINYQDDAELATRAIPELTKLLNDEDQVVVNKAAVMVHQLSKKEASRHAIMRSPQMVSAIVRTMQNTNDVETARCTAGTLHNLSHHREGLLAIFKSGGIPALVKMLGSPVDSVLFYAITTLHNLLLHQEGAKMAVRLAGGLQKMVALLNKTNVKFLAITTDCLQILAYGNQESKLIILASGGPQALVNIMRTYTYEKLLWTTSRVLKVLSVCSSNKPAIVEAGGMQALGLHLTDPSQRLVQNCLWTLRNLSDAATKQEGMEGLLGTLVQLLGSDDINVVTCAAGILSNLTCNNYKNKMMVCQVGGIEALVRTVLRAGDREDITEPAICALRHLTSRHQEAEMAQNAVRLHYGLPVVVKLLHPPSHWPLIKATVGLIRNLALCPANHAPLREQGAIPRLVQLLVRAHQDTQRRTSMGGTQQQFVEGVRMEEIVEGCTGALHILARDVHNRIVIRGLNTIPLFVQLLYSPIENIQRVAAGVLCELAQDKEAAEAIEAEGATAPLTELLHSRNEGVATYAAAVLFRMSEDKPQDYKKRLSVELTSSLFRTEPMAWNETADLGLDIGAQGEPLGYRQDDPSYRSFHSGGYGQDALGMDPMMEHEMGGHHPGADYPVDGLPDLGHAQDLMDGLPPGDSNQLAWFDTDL
Test: fluorescence polarization competition; competitor 5FAM-TCF4(10-53) probe on full-length beta-catenin
Starred links: 1 amine or outer side, 2 acyl side, 3 side chain; linkers in the order of their positions; H or OH if unused. Positions of bridges follow the written chain, without caps; N, C: chain ends. Non-standard residues stand in square brackets, D forms with d. Primed or numbered codes have the meaning given here. PyrS2″ = (S)-3-amino-1-((pent-4-en-1-yloxy)carbonyl)pyrrolidine-3-carboxylic acid (stapling residue), C=CCCCOC(=O)N1CC[C@@](N[*:1])(C(=O)[*:2])C1; B5(4) = 2,2-bis(4-pentenyl)glycine = 2-amino-2-(pent-4-en-1-yl)hept-6-enoic acid (stitching residue), C=CCCCC(CCCC=C)(N[*:1])C(=O)[*:2]; Phe(3-COOH) = N[C@@H](Cc1cccc(C(=O)O)c1)C(=O)O; Bta = N[C@@H](Cc1csc2ccccc12)C(=O)O; hTyr = N[C@@H](CCc1ccc(O)cc1)C(=O)O; αAllylPro = C=CC[C@@]1(C(=O)O)CCCN1; tBuAla = CC(C)(C)C[C@H](N)C(=O)O; 3Thi = N[C@@H](Cc1ccsc1)C(=O)O; hSer = N[C@@H](CCO)C(=O)O
Value Kind: pIC50
Give bare numbers, as −log10 of the molar value.

Please review the entries below; each comes with its answer.
binder="Ac-[αAllylPro]D[tBuAla][B5(4)]D[hTyr]AA[Phe(3-COOH)][hSer][PyrS2″][3Thi][Bta]Q-NH2 (staple 1-4, 4-11; also: earlier eluting HPLC isomer composition) [I-2116]" value_kind=pIC50 observed=7.72
binder="Ac-[αAllylPro]D[tBuAla][B5(4)]DYAA[Phe(3-COOH)][hSer][PyrS2″][3Thi][Bta]Q-NH2 (staple 1-4, 4-11; also: earlier eluting HPLC isomer composition) [I-2124]" value_kind=pIC50 observed=7.54
binder="Ac-[αAllylPro]D[tBuAla][B5(4)]D[hTyr]AA[Phe(3-COOH)][hSer][PyrS2″][3Thi][Bta]Q-NH2 (staple 1-4, 4-11; also: later eluting HPLC isomer composition) [I-2117]" value_kind=pIC50 observed=7.72

// switching to the query binder
Given item Ac-[αAllylPro]D[tBuAla][B5(4)]DHAA[Phe(3-COOH)]N[PyrS2″][3Thi][Bta]Q-NH2 (staple 1-4, 4-11; also: later eluting HPLC isomer composition) [I-2119] , the value recorded as its pIC50 is 7.54
